FYI, the data here is from ChEMBL document CHEMBL1145428.

Quick list: Activity per entry.
- target_of_assay: Protein arginine N-methyltransferase 1 (Homo sapiens)
- assay_remarks: Inhibition of human PRMT1 at 40 uM by TRF assay
- Set-up: scale not given: the % may be the effect or the level left

Consider the following illustrative entries.
1. O=C(CSC1c2ccccc2Oc2ccccc21)N1CCCCC1 : < 20%
2. CC(S)C(=O)NCCCN (centres undefined) : < 20%
3. CC(SC1c2ccccc2Sc2ccccc21)C(=O)N1CCCC1 (centres undefined) : < 20%

// moving on: another record for Activity
Qu. Complete the entry with Activity for CC(SC1c2ccccc2Oc2ccccc21)C(=O)NCCOCCOCCNC(=O)C(C)SC1c2ccccc2Oc2ccccc21 (centres undefined)
Ans. < 20%
